Test: Effect of concentration on the stability of the solution (purity over time)
Reported conditions: 1 wt % in 50% ethanol, 25° C.
Listing of entries alongside the reported Purity(%) at Day 28.
Report only the number, with the unit % understood.

Entry under test: CC(C)OC(=O)c1ccccc1 [Isopropyl benzoate, reference compound] . Its Purity(%) at Day 28 was 98.3

Entry under test: CC(C)OC(=O)C(N)Cc1ccccc1 (stereo not shown) [Isopropyl 2-amino-3-phenylpropanoate, reference compound] . Its Purity(%) at Day 28 was 96.1

***
Entry under test: CC(C)(C)OC(=O)C(N)Cc1ccccc1 (stereo not shown) [t-Butyl 2-amino-3-phenylpropanoate, reference compound] . Its Purity(%) at Day 28 was 48.9

Entry under test: CCOC(=O)c1ccccc1 [Ethyl benzoate, reference compound] . Its Purity(%) at Day 28 was 97.3

###

Listing of entries alongside the reported Purity(%) from day 0-28.
Test: Effect of pH value on the stability of the solution (purity)
Format: physicochemical
Reported conditions: day 28, pH 8.0, 7% in 25% ethanol, 25° C.
Report only the number, with the unit % understood.

Entry under test: `CC(C)Cc1ccc([C@@H](C)C(=O)OC[C@@H]2CCCN2)cc1.Cl` . Its Purity(%) from day 0-28 was 34.3

Entry under test: CCN(CC)CCOC(=O)C(C)c1ccc(CC(C)C)cc1.Cl (racemic) . Its Purity(%) from day 0-28 was 35.3

Entry under test: CC(C)Cc1ccc([C@@H](C)C(=O)OCCN(C)C)cc1.Cl (racemic) . Its Purity(%) from day 0-28 was 34.9

Entry under test: CC(C)Cc1ccc([C@@H](C)C(=O)OCCN2CCCC2)cc1.Cl (racemic) . Its Purity(%) from day 0-28 was 34.4

Entry under test: CC(C)Cc1ccc([C@@H](C)C(=O)OCCC2CCNCC2)cc1.Cl (racemic) . Its Purity(%) from day 0-28 was 34.2

Entry under test: CCCCN(CCCC)CCOC(=O)C(C)c1ccc(CC(C)C)cc1.Cl (racemic) . Its Purity(%) from day 0-28 was 35.1

Entry under test: CC(C)Cc1ccc(C(C)C(=O)OCCN2CCCCC2)cc1.Cl (racemic) . Its Purity(%) from day 0-28 was 34.1

###

Listing of entries alongside the reported Purity at Day 14.
Test: Effect of concentration on the stability of the solution (purity over time)
Reported conditions: 0.1 wt %; in water at 25° C.
Report only the number, with the unit % understood.

Entry under test: `CCN(CC)CCOC(=O)CCc1nc(-c2ccccc2)c(-c2ccccc2)o1.Cl` . Its Purity at Day 14 was 83.5

Entry under test: `CCN(CC)CCOC(=O)Cc1c(C)n(C(=O)c2ccc(Cl)cc2)c2ccc(OC)cc12.Cl` . Its Purity at Day 14 was 88.9

***
Entry under test: `CCN(CC)CCOC(=O)Cc1sc(-c2ccccc2)nc1-c1ccc(Cl)cc1.Cl` . Its Purity at Day 14 was 91.5

###

Listing of entries alongside the reported Purity(%) at day 21 (5° C.).
Test: Effect of temperature (and pH) on the stability of the solution (purity)
Type: physicochemical
Reported conditions: 7% solution in water, pH 4.3, day 21, 5° C.
Respond with a number, then the unit of measure.

Entry under test: `CCN(CC)CCOC(=O)COc1nn(Cc2ccccc2)c2ccccc12.Cl` . Its Purity(%) at day 21 (5° C.) was 97.7 ± 0.2%

Entry under test: `CCN(CC)CCOC(=O)CCc1nc(-c2ccccc2)c(-c2ccccc2)o1.Cl` . Its Purity(%) at day 21 (5° C.) was 97.9 ± 0.2%

# ---- query compound ----
Entry under test: `CCN(CC)CCOC(=O)COC(=O)Cc1c(C)n(C(=O)c2ccc(Cl)cc2)c2ccc(OC)cc12.Cl` . Its Purity(%) at day 21 (5° C.) was 98.5 ± 0.1%

###

Test: Effect of concentration on the stability of the solution (purity over time)
Reported conditions: 5 wt %; in water at 25° C.
Listing of entries alongside the reported Purity at Day 14.
Report only the number, with the unit % understood.

Look over these answered cases.
Entry under test: `CCN(CC)CCOC(=O)Cc1c(C)n(C(=O)c2ccc(Cl)cc2)c2ccc(OC)cc12.Cl` . Its Purity at Day 14 was 97.7

Entry under test: `CCN(CC)CCOC(=O)Cc1ccc(C(=O)c2ccc(C)cc2)n1C.Cl` . Its Purity at Day 14 was 96.8

Entry under test: `CCN(CC)CCOC(=O)CCc1nc(-c2ccccc2)c(-c2ccccc2)o1.Cl` . Its Purity at Day 14 was 97.0

Entry under test: `CCN(CC)CCOC(=O)Cc1sc(-c2ccccc2)nc1-c1ccc(Cl)cc1.Cl` . Its Purity at Day 14 was 97.8

Entry under test: CCN(CC)CCOC(=O)CC1=C(C)C(=Cc2ccc([S+](C)[O-])cc2)c2ccc(F)cc21.Cl (stereo not shown) . Its Purity at Day 14 was 96.7

Entry under test: CCN(CC)CCOC(=O)C(C)c1ccc2oc(-c3ccc(Cl)cc3)nc2c1.Cl (stereo not shown) . Its Purity at Day 14 was 97.6

# ---- query compound ----
Entry under test: `CCN(CC)CCOC(=O)CCc1ccc2cc(OC)ccc2c1.Cl` . Its Purity at Day 14 was 97.6

###

Test: Effect of temperature (and pH) on the stability of the solution (purity)
Type: physicochemical
Reported conditions: 7% solution in water, pH 4.0, day 21, 40° C.
Listing of entries alongside the reported Purity(%) at day 21 (40° C.).
Report only the number, with the unit % understood.

Look over these answered cases.
Entry under test: `CCN(CC)CCOC(=O)CCc1nc(-c2ccccc2)c(-c2ccccc2)o1.Cl` . Its Purity(%) at day 21 (40° C.) was 53.2

Entry under test: `CCN(CC)CCOC(=O)COc1nn(Cc2ccccc2)c2ccccc12.Cl` . Its Purity(%) at day 21 (40° C.) was 57.2

Entry under test: `CCN(CC)CCOC(=O)Cc1ccc(C(=O)c2ccc(C)cc2)n1C.Cl` . Its Purity(%) at day 21 (40° C.) was 58.3

Entry under test: CCN(CC)CCOC(=O)CC1=C(C)C(=Cc2ccc([S+](C)[O-])cc2)c2ccc(F)cc21.Cl (centres unmarked) . Its Purity(%) at day 21 (40° C.) was 60.3

# ---- query compound ----
Entry under test: `CCN(CC)CCOC(=O)COC(=O)Cc1c(C)n(C(=O)c2ccc(Cl)cc2)c2ccc(OC)cc12.Cl` . Its Purity(%) at day 21 (40° C.) was 68.7

###

Test: Effect of concentration on the stability of the solution (purity over time)
Reported conditions: 0.01 wt %; in water at 25° C.
Listing of entries alongside the reported Purity at Day 3.
Report only the number, with the unit % understood.

Look over these answered cases.
Entry under test: `CCN(CC)CCOC(=O)Cc1sc(-c2ccccc2)nc1-c1ccc(Cl)cc1.Cl` . Its Purity at Day 3 was 83.4

Entry under test: CCN(CC)CCOC(=O)[C@H](C)c1ccc2cc(OC)ccc2c1.Cl (racemic) . Its Purity at Day 3 was 79.6

Entry under test: `CCN(CC)CCOC(=O)CCc1nc(-c2ccccc2)c(-c2ccccc2)o1.Cl` . Its Purity at Day 3 was 83.8

Entry under test: CCN(CC)CCOC(=O)CC1=C(C)C(=Cc2ccc([S+](C)[O-])cc2)c2ccc(F)cc21.Cl (stereo not shown) . Its Purity at Day 3 was 82.3

Entry under test: CCN(CC)CCOC(=O)C(C)c1ccc2oc(-c3ccc(Cl)cc3)nc2c1.Cl (stereo not shown) . Its Purity at Day 3 was 84.7

Entry under test: `CCN(CC)CCOC(=O)Cc1ccc(C(=O)c2ccc(C)cc2)n1C.Cl` . Its Purity at Day 3 was 82.3

***
Entry under test: `CCN(CC)CCOC(=O)Cc1c(C)n(C(=O)c2ccc(Cl)cc2)c2ccc(OC)cc12.Cl` . Its Purity at Day 3 was 84.2

###

Test: Effect of concentration on the stability of the solution (purity over time)
Reported conditions: 20 wt %; in water at 25° C.
Recorded endpoint: Purity at hr 0 (%)
Report only the number, with the unit % understood.

Entry under test: `CCN(CC)CCOC(=O)Cc1sc(-c2ccccc2)nc1-c1ccc(Cl)cc1.Cl` . Its Purity at hr 0 was 99.0

###

Test: Effect of concentration on the stability of the solution (purity over time)
Reported conditions: 0.1 wt %; in water at 25° C.
Listing of entries alongside the reported Purity at Day 28.
Report only the number, with the unit % understood.

Look over these answered cases.
Entry under test: CCN(CC)CCOC(=O)C(C)c1ccc2oc(-c3ccc(Cl)cc3)nc2c1.Cl (stereo not drawn) . Its Purity at Day 28 was 83.0

Entry under test: `CCN(CC)CCOC(=O)Cc1ccc(C(=O)c2ccc(C)cc2)n1C.Cl` . Its Purity at Day 28 was 78.1

# ---- query compound ----
Entry under test: CCN(CC)CCOC(=O)[C@H](C)c1ccc2cc(OC)ccc2c1.Cl (racemic) . Its Purity at Day 28 was 94.1

Reference for the values: patent US20230157952A1
